Assay: Toxicokinetics in the 28-day study
Format: in vivo, mice
Settings: male, CD1, mouse, in vivo, po, 10 mg/kg, male mice; 10 mg/kg; Day 0
Readout Name: AUC (ng·h/mL)

> print(dat)
                                   compound  result.number
1  c1coc(CNc2ncnc3[nH]cnc23)c1 [MB-905, kinetin]             91

----------
Assay: Pharmacokinetics of MB-905 in three pre-formulations in mice
Format: in vivo
Conditions: CD1, mouse, plasma, po, 300 mg/kg, 5% Carboxymethylcellulose, 300 mg/kg (p.o.)
Readout Name: Tmax (h)

> print(dat)
                                   compound  scale.unit  result.number
1  c1coc(CNc2ncnc3[nH]cnc23)c1 [MB-905, kinetin]           h              8

----------
Assay: Pharmacokinetics of MB-905 in three pre-formulations in mice
Type: in vivo
Conditions: mouse, plasma, po, 30 mg/kg, 5% Tween80 + 95% PEG400, 30 mg/kg (p.o.)
Excerpt: FIG. 21. Pharmacokinetics of MB-905 in three pre-formulations in mice. Thus, the pre-formulation was used for most subsequent in vivo studies.
Readout Name: AUC (ng·h/mL)

> print(dat)
                  query.smiles  result.number
1  c1coc(CNc2ncnc3[nH]cnc23)c1           1110

----------
Assay: Cytotoxicity assay (XTT) in Calu-3 cells
Assay type: cell-based, human
Settings: human, Calu-3 cells, Table 6; Calu-3, single treatment
Readout Name: CC50 at 3 days

> print(dat)
                  query.smiles  result
1  c1coc(CNc2ncnc3[nH]cnc23)c1  620 µM

----------
Tested on: SARS-COV-2
Assay: SARS-COV-2 viral RNA synthesis in Vero cells (real time RT-PCR)
Format: cell-based
Conditions: Severe acute respiratory syndrome coronavirus 2, Vero, 24 h
pEC50: −log10 of the molar value.
Readout Name: pEC50

> print(dat)
                                   compound  readout.name  result.number
1  C/C(=C\CNc1ncnc2[nH]cnc12)CO [MB-907, zeatin]         pEC50           5.22
